- test-summary: Ocular pharmacokinetics in rabbit eyes
- Assay type: in vivo
- measurement-conditions: rabbit, vitreous; solution formulation in 2% 2-hydroxypropyl-β-cyclodextrin, intravitreal 50 μg/eye, New Zealand white rabbits; read-out: half-life of initial decrease in concentration, vitreous tissue (converted)
observed-property: half-life

                               entry_smiles  test_value
0  CCc1cc(O)c(F)cc1-c1cc(F)c2c(-c3nc4c([nH]3)CCN(C(=O)CN3CCOCC3)C4)n[nH]c2c1    ~540 min

----------
- test-summary: Lung and plasma pharmacokinetics in mice
- Type: in vivo, mouse
- measurement-conditions: mouse, lung, 5 μg/mouse; BALB/c mice, Form 1 suspension 0.1 mg/mL, 50 μL by oral aspiration
observed-property: half-life

>>> df
                                   compound  test_value
0  CCc1cc(O)c(F)cc1-c1cc(F)c2c(-c3nc4c([nH]3)CCN(C(=O)CN3CCOCC3)C4)n[nH]c2c1 [Compound 1]   ~2400 min
